For each entry below, report its LYM value.
# test.description: Cynomolgus monkey tolerability, hematology (Example 34)
# Type: in vivo, cynomolgus monkeys
# reported.conditions: cynomolgus monkey, in vivo, sc, 35 mg/kg
Numbers only, in %.

Some solved cases for reference:
• 1076453 (GTAATATTGCAATCTG; 3-10-3 cEt gapmer, further chemistry not given here) [compound 1076453] = 54
• 1198439 (AGTGTATGTCAGAAGA; sugar, 5-methylcytosine, phosphorothioate modifications, further chemistry not given here) [compound 1198439] = 68

Challenge: State its LYM: 1197270 (TTAAAGTGTATGTCAG; cEt gapmer with 2'-OMe nucleoside, phosphorothioate, further chemistry not given here) [compound 1197270]
Response given: 54

* * *

# Test system: Yap1 mRNA
# test.description: Antisense inhibition of human Yap1 in SNU-449 cells by modified oligonucleotides, single dose (Example 5, RTS36584)
# Assay type: cell-based
# reported.conditions: Yap1 mRNA, percent of untreated control; modified oligonucleotides targeting SEQ ID NO: 1 and 2; Table 47
Strand notation (5' to 3'): a small letter for the sugar, then the base; units joined by * are phosphorothioate-linked, units joined directly phosphodiester-linked; [ ] holds rarer units or linkages, { } end groups; capitals alone tell only the bases. e = 2'-O-(2-methoxyethyl) (MOE); k = constrained ethyl (cEt); [5mC] = 5-methylcytosine; d = 2'-deoxy (DNA)
For each entry below, report its YAP1 (% UT) value.
Answers are plain numbers, in % UT.

• 1074464 (kT*kT*kA*dG*dA*dG*dT*dA*dT*dG*dT*dG*dG*k[5mC]*kA*kA) [Compound 1074464] = 5
• 1198878 (kT*kT*dT*dA*dA*dA*dG*dT*dG*dT*dA*kT*eG*kT*e[5mC]*kA; antisense) [Compound 1198878] = 42
• 1197184 (antisense kA*kG*k[5mC]*dA*d[5mC]*dT*dT*dT*dT*dA*d[5mC]*dA*dT*kT*kA*kG) [Compound 1197184] = 20
• 1074798 (kG*k[5mC]*kT*dT*dT*dG*dG*dA*dA*dG*dA*dT*d[5mC]*kT*kG*kA) [Compound 1074798] = 19
• 1197208 (antisense kT*kA*kA*dT*dA*dT*dT*dG*d[5mC]*dA*dA*dT*d[5mC]*kT*kG*kT) [Compound 1197208] = 66

Record YAP1 (% UT) per entry; entries follow.
1. 1197193 (antisense AGGATGCATGGTTTTT; chemistry not fully specified) [Compound 1197193]
2. 1197186 (antisense kT*kT*kA*dA*dG*d[5mC]*dA*d[5mC]*dT*dT*dT*dT*dA*k[5mC]*kA*kT) [Compound 1197186]

Response given:
1: 15; 2: 65

* * *

# Test system: Yap1 mRNA
# test.description: Dose-dependent inhibition of human Yap1 in A-431 cells (Example 8, 10,000 cells per well, RTS4814)
# Type: cell-based
# reported.conditions: 500.0 nM; A-431 cells, 10,000 cells per well, free uptake, approximately 48 hours, RTS4814
Strand notation (5' to 3'): a small letter for the sugar, then the base; units joined by * are phosphorothioate-linked, units joined directly phosphodiester-linked; [ ] holds rarer units or linkages, { } end groups; capitals alone tell only the bases. k = constrained ethyl (cEt); [5mC] = 5-methylcytosine; d = 2'-deoxy (DNA)
metric.name: Yap1 mRNA, % UTC (% UTC)
One number for each entry, in % UTC.

Some solved cases for reference:
• 1076527 (kG*k[5mC]*kA*d[5mC]*dA*dA*d[5mC]*d[5mC]*dT*dT*dA*d[5mC]*dA*kT*kT*kT; antisense) [compound 1076527] = 16
• 1074758 (k[5mC]*kA*kG*dT*dT*dA*dA*dG*d[5mC]*dA*d[5mC]*dT*dT*kT*kT*kA; antisense) [compound 1074758] = 8
• 1075118 (k[5mC]*kT*kA*dT*dT*dT*dA*d[5mC]*dT*d[5mC]*dT*dG*dT*k[5mC]*kA*k[5mC]; antisense) [compound 1075118] = 8
• 1074448 (kT*kA*kA*dT*dG*dA*dT*dA*dG*d[5mC]*dA*d[5mC]*dT*kA*kG*kG; antisense) [compound 1074448] = 4
• 1075792 (kG*kA*kT*dT*dA*dG*dA*dA*dA*dG*dT*dG*d[5mC]*k[5mC]*kT*kT; antisense) [compound 1075792] = 15
• 1074221 (antisense kG*kA*kA*dT*dG*dA*dG*d[5mC]*dT*d[5mC]*dG*dA*dA*k[5mC]*kA*kT) [compound 1074221] = 14
• 1075143 (k[5mC]*k[5mC]*kT*dT*dA*dT*dT*dA*dG*dT*d[5mC]*dA*dG*kT*kT*k[5mC]; antisense) [compound 1075143] = 5
• 1075876 (antisense kG*kT*kA*dT*dT*dT*dA*dT*dG*dA*dT*dG*dA*kT*kT*k[5mC]) [compound 1075876] = 7

Record Yap1 mRNA, % UTC per entry; entries follow.
1. 1075395 (antisense kA*kT*kG*dA*dA*dT*dA*dA*dG*dT*dA*dT*dG*k[5mC]*k[5mC]*kA) [compound 1075395]
2. 1074595 (DNA kT*kA*kG*dA*dA*dG*dT*dA*dG*dG*dA*dG*d[5mC]*kA*kA*kG; antisense) [compound 1074595]

Response given:
1. 7
2. 8

Record Yap1 mRNA, % UTC per entry; entries follow.
1. 1076426 (kA*k[5mC]*kG*dG*dG*dA*dA*dA*dA*dT*dT*d[5mC]*dT*kG*kG*kA; antisense) [compound 1076426]
2. 1074737 (kT*kT*k[5mC]*dA*dG*dG*dT*d[5mC]*dA*dG*dT*dA*d[5mC]*kA*kG*kA; antisense) [compound 1074737]
3. 1075155 (kT*k[5mC]*kA*dT*dT*dA*dT*dA*dA*dT*dG*dG*dG*kA*kG*kG; antisense) [compound 1075155]

Response given:
1: 24; 2: 8; 3: 6

* * *

# Test system: Yap1 mRNA
# test.description: Antisense inhibition of human Yap1 in A-431 cells by cEt gapmers, single dose (Example 3, RTS36584)
# Format: cell-based
# reported.conditions: Table 28; Yap1 mRNA as percent of untreated control; 3-10-3 cEt gapmers targeting SEQ ID NO.: 1, and 2
Strand notation (5' to 3'): a small letter for the sugar, then the base; units joined by * are phosphorothioate-linked, units joined directly phosphodiester-linked; [ ] holds rarer units or linkages, { } end groups; capitals alone tell only the bases. k = constrained ethyl (cEt); [5mC] = 5-methylcytosine; d = 2'-deoxy (DNA)
metric.name: YAP1 (% UTC)
Numbers only, in % UTC.

Some solved cases for reference:
* 958499 (ATTAGAGTATGTGGCA; 3-10-3 cEt gapmer, further chemistry not given here) [compound 958499] | 2
* 1074862 (kT*kA*kT*dG*dA*dG*d[5mC]*dA*dT*dG*d[5mC]*dT*d[5mC]*kT*kT*kA; antisense) [compound 1074862] | 56
* 1074926 (antisense k[5mC]*kA*kA*d[5mC]*dA*dG*dG*d[5mC]*d[5mC]*dT*dG*d[5mC]*dA*kA*kA*kT) [compound 1074926] | 111
* 1075470 (antisense kG*k[5mC]*k[5mC]*dA*dA*dT*dA*dA*dG*dT*dT*dA*dT*k[5mC]*kA*kA) [compound 1075470] | 50
* 1075758 (kG*kT*kA*dA*dT*dT*dT*dA*dA*dT*dA*dG*dA*k[5mC]*kT*kA; antisense) [compound 1075758] | 73

Record YAP1 (% UTC) per entry; entries follow.
1. 1075502 (k[5mC]*kT*kT*dA*dA*d[5mC]*dA*dT*dG*dA*dT*dT*d[5mC]*kT*kA*kG; antisense) [compound 1075502]
2. 1075054 (antisense k[5mC]*kA*kA*dT*dA*dT*dA*dT*dA*d[5mC]*dT*dT*dG*kA*kT*k[5mC]) [compound 1075054]

Response given:
61
48

Record YAP1 (% UTC) per entry; entries follow.
1. 1075566 (kA*kT*kA*dT*dA*dT*dA*dA*d[5mC]*dA*dG*dG*d[5mC]*k[5mC]*kA*k[5mC]; antisense) [compound 1075566]
2. 1074254 (antisense kA*kT*k[5mC]*dT*dG*dG*dG*dA*d[5mC]*dA*dG*d[5mC]*dA*kT*kG*kG) [compound 1074254]
3. 1075406 (antisense kA*k[5mC]*kT*dA*dT*dA*dT*dA*dA*d[5mC]*d[5mC]*dT*dG*kA*kA*k[5mC]) [compound 1075406]
4. 1074190 (antisense k[5mC]*kG*kG*d[5mC]*dG*dG*dG*d[5mC]*d[5mC]*d[5mC]*dT*dG*d[5mC]*k[5mC]*k[5mC]*k[5mC]) [compound 1074190]
5. 1074222 (antisense kA*kG*kG*dA*dA*dT*dG*dA*dG*d[5mC]*dT*d[5mC]*dG*kA*kA*k[5mC]) [compound 1074222]

Response given:
50
13
99
114
5

The origin of these recorded values is patent US11214803B2.
